Some compounds, each annotated with its measured pIC50.
target: recombinant human ACC1 (rhACC1) (Homo sapiens (Human)); assay: recombinant hACC1 Transcreener ADP detection FP assay; details: 50 μM ATP, 120 min at 25° C.
pIC50: −log10 of the molar value.

| substance_smiles | pIC50 |
| --- | --- |
| CC(C)(C)n1cc2c(n1)C(=O)NC1(CCN(C(=O)c3ccc4c(C(F)(F)F)n[nH]c4c3)CC1)C2 | 6.79 |
| CCNc1nccc2ccc(C(=O)N3CCC4(CC3)Cc3cn(C(C)(C)C)nc3C(=O)N4)cc12 | 7.77 |
| COc1nccc2ccc(C(=O)N3CCC4(CC3)Cc3cnn(C(C)C)c3C(=O)N4)cc12 | 7.01 |
| Cc1cc(C(=O)N2CCC3(CC2)Cc2cn(C(C)C)nc2C(=O)N3)cc2cn[nH]c12 | 7.17 |
